System: LXRa:RXRa (NR concentration 270 nM, RXRa partner concentration 90 nM)
Assay name: PBM binding z-score (relative to random genomic background probes); higher = stronger binding; sequences stand for … in GC…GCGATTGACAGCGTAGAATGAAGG
Value kind: PBM binding z-score

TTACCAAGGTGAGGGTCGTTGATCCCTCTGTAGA 0.898
AATACAGGGTCACTAGGCCAGTGTAGGTACGAAT 5.39
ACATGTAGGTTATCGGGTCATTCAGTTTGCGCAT 3.33
CCTACTGGCCCAAGGTCATTGATCAGTCAAAGCA 3.24
CAAACTAGGTCAACGGTCAAAGTCGAGCCAACCA 4.31
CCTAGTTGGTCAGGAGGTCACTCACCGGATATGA 2.85
